Data credit: patent US6579881B2

tested on: Straub's tail reaction (hyper-muscle tone in the tail); assay: Morphine induced Straub's tail phenomenon in mice; type: in vivo; conditions: Mus musculus, ip; male ddY mice, i.p., 15 min before morphine hydrochloride 12.5 mg/kg s.c.; statistically significant (p<0.05); read-out: minimal effective dose i.p.
Where a name gives a salt, the structure may show the parent alone.
measured.endpoint: minimal effective dose (mg/kg)
Answers are plain numbers, in mg/kg.

Here is how some molecules turned out for minimal effective dose.
>>> endpoint_value("CC(=O)NCCc1ccc2c(c1)N(C1CCN(CCc3ccc(F)cc3)CC1)CC2 [Example 166]")
3
>>> endpoint_value("Fc1ccc(CCN2CCC(N3CCc4ccccc43)CC2)cc1 [Example 9]")
10
>>> endpoint_value("NCC(CC(=O)O)c1ccc(Cl)cc1 (centres unmarked) [Baclofen, baclofen, reference compound]")
3

List reported minimal effective dose for each of these molecules:
1. CCNC(=O)Cc1ccc2c(c1)N(C1CCN(CCc3ccc(F)cc3)CC1)CC2 [Example 149]
2. CC(=O)NCc1ccc2ccn(C3CCN(CCc4ccc(F)cc4)CC3)c2c1 [Example 285]
3. NC(=O)c1ccc2c(c1)N(C1CCN(CCc3ccc(F)cc3)CC1)CC2 [Example 125]
4. O=C1CCC(=O)N1Cc1ccc2c(c1)N(C1CCN(CCc3ccc(F)cc3)CC1)CC2 [Example 204]

Out:
[1, 1, 1, 3]

List reported minimal effective dose for each of these molecules:
1. CN(C)CCC=C1c2ccccc2C=Cc2ccccc21 [Cyclobenzaprine, cyclobenzaprine hydrochloride, reference compound]
2. CN1CCC(=C2c3ccccc3C=Cc3ccccc32)CC1 [Cyproheptadine, cyproheptadine hydrochloride, reference compound]
3. CNCc1ccc2c(c1)N(C1CCN(CCc3ccc(F)cc3)CC1)CC2 [Example 162]

Out:
10
3
1

In: Entry Clc1ccc2nsnc2c1NC1=NCCN1 [Tizanidine, tizanidine hydrochloride, reference compound] has what minimal effective dose?
Out: 1

---

molecular target: serotonin 2 receptor (Rattus norvegicus); assay: Binding test on [3H] ketanserin (serotonin 2 receptor); details: [3H] ketanserin 0.3 nM, receptor fraction of rat cerebral cortex; read-out: 5HT2
pKi: −log10 of the molar value. Structures can show the parent of a compound that is named as a salt.
Use 8 as the dividing line for pKi, with the line itself on the 1 (yes) side and lower values as 0 (no).

>>> class_label("NC(=S)Cc1ccc2c(c1)N(C1CCN(CCc3ccc(F)cc3)CC1)CC2 [Example 129]")
"1 (yes)"
>>> class_label("Fc1ccc(CCN2CCC(N3CCc4ccc(Cc5ccncc5)cc43)CC2)cc1 [Example 179]")
"1 (yes)"

In: Is the recorded value of pKi equal to or greater than 8 for this compound? O=S(=O)(Nc1ccc2c(c1)N(C1CCN(CCc3ccc(F)cc3)CC1)CC2)c1ccc(F)cc1 [Example 119]
Out: 0 (no)

In: Is the recorded value of pKi equal to or greater than 8 for this compound? O=C1CNC(=O)N1Cc1ccc2c(c1)N(C1CCN(CCc3ccc(F)cc3)CC1)CC2 [Example 207]
Out: 1 (yes)

In: Is the recorded value of pKi equal to or greater than 8 for this compound? O=C(Cc1ccc2ccn(C3CCN(CCc4ccc(F)cc4)CC3)c2c1)NCCc1ccccn1 [Example 315, Oxalate]
Out: 1 (yes)

In: Is the recorded value of pKi equal to or greater than 8 for this compound? N#CCc1ccc2c(c1)N(C1CCN(CCc3ccc(F)cc3)CC1)CC2 [Example 145]
Out: 0 (no)

In: Is the recorded value of pKi equal to or greater than 8 for this compound? Fc1ccc(CCN2CCC(N3CCc4cc5scnc5cc43)CC2)cc1 [Example 234]
Out: 1 (yes)

In: Is the recorded value of pKi equal to or greater than 8 for this compound? CC(C)NC(=O)Cc1ccc2ccn(C3CCN(CCc4ccc(F)cc4)CC3)c2c1 [Example 286]
Out: 1 (yes)

---

biological target: serotonin 2 receptor (Rattus norvegicus); experiment: Binding test on [3H] ketanserin (serotonin 2 receptor); settings: [3H] ketanserin 0.3 nM, receptor fraction of rat cerebral cortex; read-out: 5HT2
Counter-ions that a name gives are not always drawn.
Would you mind telling me the reported Ki of each entry?
One number for each entry, in nM.

>>> endpoint_value("OC(c1ccc(Cl)nc1)c1ccc2c(c1)N(C1CCN(CCc3ccc(F)cc3)CC1)CC2 (centres unmarked) [Example 192]")
2.9
>>> endpoint_value("O=C(Cc1ccc2ccn(C3CCN(CCc4ccc(F)cc4)CC3)c2c1)N1CCCC1 [Example 298]")
21.3
>>> endpoint_value("O=C(CCl)NCc1ccc(CCN2CCC(N3CCc4ccccc43)CC2)cc1 [Example 37]")
14.8
>>> endpoint_value("Fc1ccc(CCN2CCC(N3CCc4ccc(Cc5ccccn5)cc43)CC2)cc1 [Example 175]")
0.35
>>> endpoint_value("CC(=O)c1ccc2c(c1)N(C1CCN(CCc3ccc(F)cc3)CC1)CC2 [Example 127]")
5.08
>>> endpoint_value("O=C(Cc1ccc2ccn(C3CCN(CCc4ccccc4F)CC3)c2c1)NCCO [Example 346]")
1.49

List reported Ki for each of these compounds:
1. COc1cccc(Cc2ccc3c(c2)N(C2CCN(CCc4ccc(F)cc4)CC2)CC3)n1 [Example 187]
2. O=C(NCc1ccc2ccn(C3CCN(CCc4ccc(F)cc4)CC3)c2c1)C(F)F [Example 365]
3. CS(=O)(=O)NCc1ccc2c(c1)N(C1CCN(CCc3ccc(F)cc3)CC1)CC2 [Example 160]
4. O=C1OCCN1Cc1ccc2c(c1)N(C1CCN(CCc3ccc(F)cc3)CC1)CC2 [Example 208]
5. c1ccc2c(c1)CCN2C1CCN(CCc2ccncc2)CC1 [Example 49]
6. NC(=O)CNC(=O)Cc1ccc2ccn(C3CCN(CCc4ccc(F)cc4)CC3)c2c1 [Example 306, Oxalate]

Out:
5.01
3.11
8
1.05
29.9
3.87

---

target: serotonin 2 receptor (Rattus norvegicus); experiment: Binding test on [3H] ketanserin (serotonin 2 receptor); conditions: [3H] ketanserin 0.3 nM, receptor fraction of rat cerebral cortex; read-out: 5HT2
pKi: −log10 of the molar value.
Use 8 as the dividing line for pKi, with the line itself on the Yes side and lower values as No.

In: Is the recorded value of pKi equal to or greater than 8 for this molecule? "Fc1ccc(CCN2CCC(N3CCc4ccc(Cl)cc43)CC2)cc1"
Out: No

---

target: serotonin 2 receptor (Rattus norvegicus, UniProt P14842); experiment: Binding test on [3H] ketanserin (serotonin 2 receptor); conditions: [3H] ketanserin 0.3 nM, receptor fraction of rat cerebral cortex; read-out: 5HT2
Sequence (P14842 whole entry): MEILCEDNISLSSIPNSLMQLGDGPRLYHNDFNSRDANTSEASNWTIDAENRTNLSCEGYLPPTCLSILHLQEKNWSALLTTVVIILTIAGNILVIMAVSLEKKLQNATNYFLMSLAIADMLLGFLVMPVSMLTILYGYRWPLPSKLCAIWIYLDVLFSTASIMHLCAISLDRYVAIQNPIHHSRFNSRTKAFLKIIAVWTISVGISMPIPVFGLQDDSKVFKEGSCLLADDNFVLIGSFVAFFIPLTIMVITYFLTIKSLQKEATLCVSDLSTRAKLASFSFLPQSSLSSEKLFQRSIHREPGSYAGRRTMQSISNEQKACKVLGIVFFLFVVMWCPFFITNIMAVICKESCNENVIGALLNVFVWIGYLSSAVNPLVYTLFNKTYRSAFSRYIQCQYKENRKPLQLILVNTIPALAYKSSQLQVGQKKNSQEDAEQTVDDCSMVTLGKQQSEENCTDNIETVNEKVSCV
Structures can show the parent of a compound that is named as a salt.
Values of Ki strictly less than 9 nM map to rule met, and values of at least 9 nM map to rule not met.

>>> class_label("Fc1ccc(CCN2CCC(N3CCc4ccc(-c5ccc(F)cc5)cc43)CC2)cc1")
"rule not met"
>>> class_label("COc1cccc2c1N(C1CCN(CCc3ccc(F)cc3)CC1)CC2")
"rule met"
>>> class_label("CS(=O)(=O)c1ccc2ccn(C3CCN(CCc4ccc(F)cc4)CC3)c2c1")
"rule met"
>>> class_label("CCNC(=O)CCc1ccc2ccn(C3CCN(CCc4ccc(F)cc4)CC3)c2c1 [Example 311, Oxalate]")
"rule not met"
>>> class_label("CC(=O)Nc1ccc2c(c1)N(C1CCN(CCc3ccc(F)cc3F)CC1)CC2")
"rule not met"
>>> class_label("CN(C)CC(=O)NCc1ccc2ccn(C3CCN(CCc4ccc(F)cc4)CC3)c2c1")
"rule met"
>>> class_label("NC(=O)c1ccc(CCN2CCC(N3CCc4ccccc43)CC2)cc1")
"rule not met"

Please look at the following molecule next.
In: Report whether reported Ki is lower than 9 nM (strictly) for OC(c1cccnc1)c1ccc2c(c1)N(C1CCN(CCc3ccc(F)cc3)CC1)CC2 (stereo not drawn)
Out: rule met

---

Counter-ions that a name gives are not always drawn.
Would you mind telling me the reported melting point of each entry?

Here is how some compounds turned out for melting point.
>>> endpoint_value("O=C(Cc1ccc2ccn(C3CCN(CCc4ccc(F)cc4)CC3)c2c1)NCCF")
"163.3 to 163.8 °C"
>>> endpoint_value("CC(=O)NCc1ccc2ccn(C3CCN(CCc4ccc(Br)cc4)CC3)c2c1")
"140 to 141 °C"
>>> endpoint_value("COc1ccc(CCN2CCC(n3ccc4ccc(CNC(C)=O)cc43)CC2)cc1")
"101 to 102 °C"
>>> endpoint_value("CC(C)CNC(=O)Cc1ccc2ccn(C3CCN(CCc4ccc(F)cc4)CC3)c2c1")
"131.8 to 132.2 °C"
>>> endpoint_value("COc1ccc2c(c1)N(C1CCN(CC(=O)c3ccc(F)cc3)CC1)CCC2 (as salt: hydrochloride)")
"153 to 155 °C (dec.)"
>>> endpoint_value("COc1ccc2c(c1)N(C1CCN(CCCC#N)CC1)CCC2 (as salt: hydrochloride)")
"180 to 183 °C (dec.)"

List reported melting point for each of these compounds:
1. CN(C)CCNC(=O)Cc1ccc2ccn(C3CCN(CCc4ccc(F)cc4)CC3)c2c1
2. O=C(CN1CCCCC1)NCc1ccc2ccn(C3CCN(CCc4ccc(F)cc4)CC3)c2c1 (as salt: oxalate)

Out:
1: 111.8 to 112.9 °C; 2: 113 to 114 °C
